# target or test system: VPS34 (Homo sapiens, UniProt Q8NEB9)
# Construct: GST (N); host or cells: SF9 insect cells (baculovirus)
# Sequence (Q8NEB9 whole entry): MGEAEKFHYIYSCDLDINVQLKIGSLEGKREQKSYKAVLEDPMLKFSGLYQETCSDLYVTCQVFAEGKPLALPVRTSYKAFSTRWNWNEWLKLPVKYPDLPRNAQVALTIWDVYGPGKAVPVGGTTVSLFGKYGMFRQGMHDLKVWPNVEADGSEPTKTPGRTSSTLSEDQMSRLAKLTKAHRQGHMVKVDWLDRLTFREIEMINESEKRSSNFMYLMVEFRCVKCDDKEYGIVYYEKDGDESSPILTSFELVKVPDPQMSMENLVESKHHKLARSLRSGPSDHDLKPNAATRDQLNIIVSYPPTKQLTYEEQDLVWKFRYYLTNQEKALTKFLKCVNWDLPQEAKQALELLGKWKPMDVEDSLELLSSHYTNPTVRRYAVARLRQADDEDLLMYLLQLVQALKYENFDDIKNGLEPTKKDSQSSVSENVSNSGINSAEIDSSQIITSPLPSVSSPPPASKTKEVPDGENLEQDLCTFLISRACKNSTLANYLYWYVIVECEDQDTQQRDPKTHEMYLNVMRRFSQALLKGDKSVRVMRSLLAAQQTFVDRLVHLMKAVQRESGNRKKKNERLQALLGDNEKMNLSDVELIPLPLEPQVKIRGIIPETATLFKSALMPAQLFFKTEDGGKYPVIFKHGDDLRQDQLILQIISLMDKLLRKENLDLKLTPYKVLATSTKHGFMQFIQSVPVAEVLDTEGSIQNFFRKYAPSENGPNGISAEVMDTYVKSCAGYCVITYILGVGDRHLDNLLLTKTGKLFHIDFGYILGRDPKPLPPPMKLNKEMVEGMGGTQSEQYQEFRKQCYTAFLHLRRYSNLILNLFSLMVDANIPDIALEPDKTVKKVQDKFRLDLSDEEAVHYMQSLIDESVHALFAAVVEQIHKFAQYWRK
# method: Human VPS34 enzyme assay (Adapta TR-FRET)
# Type: biochemical
# conditions used: 1 h; at a 1.11 μM concentration; read-out: VPS34 Percent Inhibition
quantity: inhibition at 1.11 µM (%)

a. CC(=O)Nc1cc(-c2cc(-c3ccccc3Cl)n(-c3nccs3)n2)ccn1 [I-3]
b. CC(=O)Nc1cc(-c2cc(C(N)=O)n(-c3ccccc3Cl)n2)ccn1 [I-14]
Query: Which entry shows the lesser value of inhibition at 1.11 µM here, a or b ? Write down the label attached to your selection.
Reply: a

I. CC(=O)Nc1cc(-c2cc(-c3ccccc3C)c(C(N)=O)[nH]2)ccn1 [I-102]
II. CC(=O)Nc1cc(-c2cc(-c3ccccc3C)c(C(N)=O)n2C)ccn1 [I-104]
Query: Which entry shows the lesser value of inhibition at 1.11 µM here, I or II ? Write down the label attached to your selection.
Reply: II

====

# target or test system: VPS34 (Homo sapiens, UniProt Q8NEB9)
# Construct: GST (N); host or cells: SF9 insect cells (baculovirus)
# method: Human VPS34 enzyme assay (Adapta TR-FRET)
# Format: biochemical
# conditions used: 1 h; at a 1.11 μM concentration; read-out: VPS34 Percent Inhibition
quantity: inhibition at 1.11 µM (%)

structure string | target or test system | unit info | endpoint value
CC(=O)Nc1cc(-c2cc(C(N)=O)n(CC3CC3)c2)c(C)cn1 | VPS34 (Homo sapiens, UniProt Q8NEB9) | % | 68

a. CC(=O)Nc1cc(-c2cc(-c3nc[nH]n3)n(-c3ncccc3Cl)c2)c(C)cn1
b. CC(=O)Nc1cc(-c2cc(-c3ccccc3C)c(-c3nnc[nH]3)[nH]2)ccn1
Query: Of a and b , whose reported inhibition at 1.11 µM is the larger number? Write down the label attached to your selection.
Reply: a

====

# target or test system: VPS34 (Homo sapiens, UniProt Q8NEB9)
# Construct: GST (N); host or cells: SF9 insect cells (baculovirus)
# method: Human VPS34 enzyme assay (Adapta TR-FRET)
# Format: biochemical
# conditions used: 1 h; at a 1.11 μM concentration; read-out: VPS34 Percent Inhibition
quantity: inhibition at 1.11 µM (%)

// solved cases for inhibition at 1.11 µM follow
structure string | quantity | unit info | endpoint value
CC(=O)Nc1cc(-c2cc(-c3nnc[nH]3)cn2CC2CC2)ccn1 | inhibition at 1.11 µM | % | 93
CC(=O)Nc1cc(-c2cc(C(N)=O)n(-c3ncccc3Cl)c2)c(C)cn1 | inhibition at 1.11 µM | % | 39
CC(=O)Nc1cc(-c2cc(-c3ccccc3C)c(-c3nc[nH]n3)n2C)ccn1 | inhibition at 1.11 µM | % | 39
CC(=O)Nc1cc(-c2cc(C(N)=O)c(-c3ccnc(NC(C)=O)c3)n2C)ccn1 | inhibition at 1.11 µM | % | 18
CC(=O)Nc1cc(-c2cc(C(N)=O)n(-c3ccccc3Cl)c2)c(C)cn1 | inhibition at 1.11 µM | % | 96

a. CC(=O)Nc1cc(-c2cc(-c3nnc[nH]3)n(-c3ccccc3Cl)n2)ccn1
b. CCn1cc(C(N)=O)cc1-c1ccnc(NC(C)=O)c1
Query: Of a and b , whose reported inhibition at 1.11 µM is the larger number? Write down the label attached to your selection.
Reply: a
(a: 96%, b: 54%)
